target.or.test.system: UniProt:P41594
assay.overview: mGluR5 positive allosteric modulator (PAM) functional assay

| compound | EC50 |
| --- | --- |
| CN1CCCC1c1nc(-c2ccc(C#Cc3cccc(F)c3)cc2)no1 (stereo not shown) | 0.1 to 0.3 µM |
| Fc1cccc(C#Cc2ccc(-c3noc(C4CCCN4CCC(F)(F)F)n3)nc2)c1 (stereo not shown) | ≤ 0.03 µM |
| CCN1CCCC1c1nc(-c2ccc(C#Cc3cccc(F)c3)cc2)no1 (stereo not shown) | 0.1 to 0.3 µM |
| CCC(CC)c1nc(-c2ccc(C#Cc3ccncc3)cc2)no1 | 0.03 to 0.1 µM |
| CCC(NC1CC1)c1nc(-c2ccc(C#Cc3ccccn3)cn2)no1 (stereo not shown) | 0.3 to 1 µM |
| Fc1cccc(C#Cc2ccc(-c3noc(C4CCCN4)n3)nc2)c1 (stereo not shown) [Compound 119] | 0.3 to 1 µM |
| CN1C(c2nc(-c3ccc(C#Cc4ccccn4)cn3)no2)CCC1(C)C (stereo not shown) | 0.03 to 0.1 µM |

---

target.or.test.system: mGluR5 (Homo sapiens, UniProt P41594)
Sequence (P41594 21-1212): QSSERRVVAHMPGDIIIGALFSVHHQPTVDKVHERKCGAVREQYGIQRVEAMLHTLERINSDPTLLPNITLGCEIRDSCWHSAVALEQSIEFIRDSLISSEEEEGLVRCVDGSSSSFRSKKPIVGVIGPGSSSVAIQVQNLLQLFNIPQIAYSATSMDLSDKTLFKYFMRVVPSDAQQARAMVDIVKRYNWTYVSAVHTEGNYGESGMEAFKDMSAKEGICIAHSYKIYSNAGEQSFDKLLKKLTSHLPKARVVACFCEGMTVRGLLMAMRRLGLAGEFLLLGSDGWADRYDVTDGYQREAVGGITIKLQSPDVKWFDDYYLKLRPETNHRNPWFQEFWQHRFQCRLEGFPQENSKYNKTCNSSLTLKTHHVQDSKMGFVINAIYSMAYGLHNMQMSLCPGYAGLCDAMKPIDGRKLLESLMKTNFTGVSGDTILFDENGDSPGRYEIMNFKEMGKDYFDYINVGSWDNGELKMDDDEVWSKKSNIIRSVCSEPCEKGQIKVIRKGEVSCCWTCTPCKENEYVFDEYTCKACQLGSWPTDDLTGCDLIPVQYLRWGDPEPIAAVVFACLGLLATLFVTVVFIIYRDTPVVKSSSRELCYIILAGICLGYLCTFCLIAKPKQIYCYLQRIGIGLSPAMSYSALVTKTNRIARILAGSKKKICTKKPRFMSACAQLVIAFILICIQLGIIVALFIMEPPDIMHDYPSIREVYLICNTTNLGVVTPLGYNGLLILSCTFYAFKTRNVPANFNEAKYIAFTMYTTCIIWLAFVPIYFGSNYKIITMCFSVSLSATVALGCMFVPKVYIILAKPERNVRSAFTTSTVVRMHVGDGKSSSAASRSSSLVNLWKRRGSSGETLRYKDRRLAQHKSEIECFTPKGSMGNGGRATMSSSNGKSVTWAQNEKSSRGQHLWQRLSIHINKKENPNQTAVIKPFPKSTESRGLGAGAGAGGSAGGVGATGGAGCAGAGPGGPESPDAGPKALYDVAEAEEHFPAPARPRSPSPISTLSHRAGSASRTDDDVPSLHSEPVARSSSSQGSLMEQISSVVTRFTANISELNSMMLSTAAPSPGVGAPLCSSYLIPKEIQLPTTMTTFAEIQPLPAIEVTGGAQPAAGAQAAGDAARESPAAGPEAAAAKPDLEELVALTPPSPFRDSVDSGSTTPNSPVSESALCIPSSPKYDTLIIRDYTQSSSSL
assay.overview: mGluR5 positive allosteric modulator (PAM) functional assay
metric: EC50

| compound | metric | reported.result |
| --- | --- | --- |
| CCC(CC)c1nc(-c2ccc(C#Cc3ccccn3)cn2)no1 | EC50 | ≤ 30 nM |
| Fc1cccc(C#Cc2ccc(-c3noc(C4COCCN4)n3)nc2)c1 (stereo not shown) | EC50 | 30 to 100 nM |
| CC(c1nc(-c2ccc(C#Cc3cccc(F)c3)cc2)no1)N1CCC1 (stereo not shown) | EC50 | 300 to 1000 nM |
| CN1C[C@H](O)C[C@@H]1c1nc(-c2ccc(C#Cc3cccc(F)c3)cn2)no1 | EC50 | 100 to 300 nM |
| CCN(CC)C(C)c1nc(-c2ccc(C#Cc3cccc(F)c3)cn2)no1 (stereo not shown) | EC50 | ≤ 30 nM |
| Fc1cccc(C#Cc2ccc(-c3noc(C4CCCC4)n3)cn2)c1 | EC50 | 100 to 300 nM |
| C(#Cc1ccc(-c2noc(C3CCCN3)n2)nc1)c1ccccc1 (stereo not shown) | EC50 | 300 to 1000 nM |
| CCC(C)c1nc(-c2ccc(C#Cc3cccnc3)cc2)no1 (stereo not shown) | EC50 | 300 to 1000 nM |
| Clc1cccc(C#Cc2ccc(-c3noc(C4CCCN4)n3)nc2)c1 (stereo not shown) | EC50 | 300 to 1000 nM |
| CNCc1nc(-c2ccc(C#Cc3cccc(F)c3)cn2)no1 | EC50 | 300 to 1000 nM |
| CC(c1nc(-c2ccc(C#Cc3cccc(F)c3)cc2)no1)N1CCCC1 (stereo not shown) | EC50 | 300 to 1000 nM |
| CN1CCCC1(C)c1nc(-c2ccc(C#Cc3cccc(F)c3)cn2)no1 (stereo not shown) | EC50 | ≤ 30 nM |
| CC(C)(C)c1nc(-c2ccc(C#Cc3cccc(F)c3)cc2)no1 | EC50 | 100 to 300 nM |
| CCC(OC)c1nc(-c2ccc(C#Cc3ccccn3)nc2)no1 (stereo not shown) | EC50 | 300 to 1000 nM |
| CCC(C)c1nc(-c2ccc(C#Cc3ccncc3)cn2)no1 (stereo not shown) | EC50 | ≤ 30 nM |
| Fc1cccc(C#Cc2ccc(-c3noc(C4CCCN4)n3)nc2)c1 (stereo in doubt) [Compound 121] | EC50 | 300 to 1000 nM |
| N#CCN1CCCC1c1nc(-c2ccc(C#Cc3cccc(F)c3)cn2)no1 (stereo not shown) | EC50 | 30 to 100 nM |
| CC(C)c1nc(-c2ccc(C#Cc3cccc(F)c3)cc2)no1 | EC50 | 300 to 1000 nM |
| CC(c1nc(-c2ccc(C#Cc3cccc(F)c3)cc2)no1)N(C)C1CC1 (stereo not shown) | EC50 | 300 to 1000 nM |
